- MEASURED ON: Rac GTPase-activating protein 1 (Homo sapiens)
- EXPERIMENT NOTES: blockers of MgcRacGAP-driven Rac1 GTP hydrolysis – biochemical, ADP Hunter fluorescence, primary and confirmatory, confirmation (AID 624330);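 also: fluorescence reports GDP produced by GAP-driven GTP hydrolysis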
- SETUP CONDITIONS: MgcRacGAP-stimulated Rac1 GTP hydrolysis, at 30 µM, active compounds read high, GST-tagged Rac1 F28L mutant substrate
The whole screen tested about 340,000 compounds, of which about 2,100 (0.62%) were called active. Not all results are given here. Measured potencies and affinities stand elsewhere.
OBSERVED PROPERTY: inhibition (%)
Field: numeric (%). Do not append units.

Solved cases (3 shown):
compound=CCOC(=O)c1oc2cc(C)cc(C)c2c1C meas_value=4.4
compound=Cn1nccc1NC(=O)Nc1cccc(Cl)c1Cl meas_value=2.52
compound=O=S(=O)(N/N=C\c1ccccc1O)c1ccc(Cl)cc1 meas_value=6.73

Using the record for CN(C)C(CNC(=O)C1CC(=O)N(Cc2ccccc2)C1)c1ccccc1 (stereo not drawn) , report its inhibition.
5.5

Recorded inhibition for Cn1cc(C(=O)C(=O)NC2CCCCC2)c2ccccc21 , please?
10

Dear colleague, I am looking for the recorded inhibition of the following compound: CCOc1ccc(-n2cccc2C=O)cc1
4.88

Give its inhibition value. Item: CN(C)c1ccc(-n2cccc2/C=N/n2cnnc2)cc1
9.83

Return reported inhibition; argument: Cc1cc(C(F)F)nn1CC(=O)NCc1ccc(Cl)cc1Cl
6.89

Look up inhibition: COc1ccc(-n2cccc2C=O)cc1
4.9

Any idea what its inhibition is? The compound is Cc1c(Cl)ccc(S(=O)(=O)N2CCN=C2c2ccccc2)c1Cl
4.68

For the compound shown here, COc1ccc(CCC(=O)N2CCN(S(=O)(=O)c3ccc(OC)c([N+](=O)[O-])c3)CC2)cc1 , give the reported inhibition.
14.3

Quick one: inhibition for Cc1ccc2c(c1)NC(=O)C(CC(=O)Nc1ccc(CN3CCC(C)CC3)cc1)O2 (stereo not drawn) ?
4.76
